- MEASURED_ON: CDK7/Cyclin H/MAT-1 complex (Homo sapiens)
- Construct: Human CDK7 (amino acids 1-346); His6 (N); TEV protease cleavage site (N); made in house; host or cells: baculovirus-SF9 insect cells
- Sequence (P50613 whole entry, the tested form may be a part): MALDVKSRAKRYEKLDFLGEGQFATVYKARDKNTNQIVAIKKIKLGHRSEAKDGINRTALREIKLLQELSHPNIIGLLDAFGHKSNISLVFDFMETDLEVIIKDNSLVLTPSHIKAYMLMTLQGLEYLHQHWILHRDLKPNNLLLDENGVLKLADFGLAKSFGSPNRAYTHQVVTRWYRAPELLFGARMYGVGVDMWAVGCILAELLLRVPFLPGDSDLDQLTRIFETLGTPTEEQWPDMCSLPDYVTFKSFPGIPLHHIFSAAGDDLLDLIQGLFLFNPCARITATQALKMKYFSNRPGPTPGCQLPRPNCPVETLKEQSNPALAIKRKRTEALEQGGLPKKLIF
- Sequence (P51946 whole entry partner, the tested form may be a part): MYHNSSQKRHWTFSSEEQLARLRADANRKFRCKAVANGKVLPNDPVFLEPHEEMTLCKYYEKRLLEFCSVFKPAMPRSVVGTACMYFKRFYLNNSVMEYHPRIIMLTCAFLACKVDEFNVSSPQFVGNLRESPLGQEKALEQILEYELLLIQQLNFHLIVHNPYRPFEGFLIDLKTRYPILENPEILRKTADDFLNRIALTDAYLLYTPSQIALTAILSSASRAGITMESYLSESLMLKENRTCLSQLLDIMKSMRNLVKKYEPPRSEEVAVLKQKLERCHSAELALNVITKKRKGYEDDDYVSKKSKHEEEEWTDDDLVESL
- Sequence (P51948 whole entry partner, the tested form may be a part): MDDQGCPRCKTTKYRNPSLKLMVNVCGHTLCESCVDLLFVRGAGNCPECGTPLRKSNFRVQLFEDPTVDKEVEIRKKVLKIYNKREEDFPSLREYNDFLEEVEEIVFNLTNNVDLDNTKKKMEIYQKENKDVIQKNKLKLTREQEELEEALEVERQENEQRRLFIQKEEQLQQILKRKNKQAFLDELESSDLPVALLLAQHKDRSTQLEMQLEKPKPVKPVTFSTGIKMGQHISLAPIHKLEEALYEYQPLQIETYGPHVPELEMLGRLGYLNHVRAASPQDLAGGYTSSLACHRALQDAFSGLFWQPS
- EXPERIMENT_SUMMARY: Absorbance kinetic assay (20 nM CDK7/Cyclin H/MAT-1 complex)
- Format: biochemical
- MEASUREMENT_CONDITIONS: read-out: CDK7 (20 nM) pIC50 (converted)
ASSAY_ENDPOINT: IC50

Consider the molecule [2H]C([2H])([2H])N1CC[C@H](C(=O)N2Cc3nc(NCc4ccccc4)ncc3C[C@H]2C)[C@@H](c2ccccc2)C1 (single isomer, unassigned) and give its measured IC50.
< 9.77 nM

Record: CO[C@]1(C)CC[C@H](Nc2ncc3c(n2)CN(C(=O)[C@H]2CCN(C)C[C@@H]2c2ccccc2)[C@H](C)C3)CC1
13.8 nM

Record: Cc1cccc([C@H]2CN(C)CC[C@@H]2C(=O)N2Cc3nc(Nc4cnn(C)c4)ncc3C[C@H]2C)c1 (relative stereo)
15.5 nM

Record: C[C@@H]1Cc2cnc(NCc3ccn(C)c3)nc2CN1C(=O)[C@H]1CCN(C)C[C@@H]1c1ccccc1
< 9.77 nM

Record: Cc1cc([C@H]2CN(C)CC[C@@H]2C(=O)N2Cc3nc(NC4CCOCC4)ncc3C[C@H]2C)ccn1 (relative stereo)
> 10000 nM

Record: [2H]C([2H])([2H])N1CC[C@@H](C(=O)N2Cc3nc(NCc4ccn(C)n4)ncc3C[C@H]2C)[C@H](c2cccc(C)c2)C1 (single isomer, unassigned)
< 9.77 nM

Record: CN1CC[C@H](C(=O)N2Cc3nc(NC4CCOCC4)ncc3CC2(C)C)[C@@H](c2ccccc2)C1 (relative stereo)
17.8 nM

Record: C[C@H]1CN(C(=O)[C@H]2CCN(C)C[C@@H]2c2ccccc2)Cc2nc(NC3CCOCC3)ncc21 (relative stereo)
> 10000 nM

Record: C[C@@H]1Cc2cnc(N[C@@H]3CCOC4(CCC4)C3)nc2CN1C(=O)[C@H]1CCN(C)C[C@@H]1c1ccccc1 (relative stereo)
< 9.77 nM

The origin of these recorded values is patent US12679839B2.
